Attribution: patent US11352350B2

Biological target: UniProt Q9NWZ3
Sequence (Q9NWZ3 whole entry): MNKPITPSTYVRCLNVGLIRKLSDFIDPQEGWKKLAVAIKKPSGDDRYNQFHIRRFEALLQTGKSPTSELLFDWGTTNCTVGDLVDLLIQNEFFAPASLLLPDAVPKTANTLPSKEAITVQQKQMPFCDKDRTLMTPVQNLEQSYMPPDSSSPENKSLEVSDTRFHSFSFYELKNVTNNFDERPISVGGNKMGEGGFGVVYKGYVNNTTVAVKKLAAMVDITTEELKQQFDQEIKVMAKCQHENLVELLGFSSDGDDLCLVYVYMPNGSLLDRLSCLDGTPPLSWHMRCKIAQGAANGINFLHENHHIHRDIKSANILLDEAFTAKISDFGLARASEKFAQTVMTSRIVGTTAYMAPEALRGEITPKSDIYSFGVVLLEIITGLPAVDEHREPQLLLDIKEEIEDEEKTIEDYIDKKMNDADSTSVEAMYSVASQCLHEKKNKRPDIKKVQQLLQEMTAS
Assay: IRAK4 MSD degradation in OCI-LY10
Format: cell-based
Details: OCI-LY10, 4 hrs, MSD; read-out: IRAK4 MSD degradation in OCI-LY10 at 4 hrs: Average external-Abs DC50
measurement_kind: DC50

compound	assay_target	result
CN(CCCOCCCNc1cccc2c1C(=O)N(C1CCC(=O)NC1=O)C2=O)C[C@H]1CC[C@H](n2cc(NC(=O)c3coc(-c4ccnc(N[C@H]5CCCC[C@H]5O)c4)n3)c(C(F)F)n2)CC1 (stereo partly shown) [I-398]	UniProt Q9NWZ3	10 to 100 nM
O=C1CCC(N2C(=O)c3cccc(NCCOC[C@H]4CC[C@H](n5cc(NC(=O)c6cnn7ccc(N8C[C@H]9C[C@@H]8CO9)nc67)c(C(F)F)n5)CC4)c3C2=O)C(=O)N1 (stereo partly shown) [I-369]	UniProt Q9NWZ3	> 1000 nM
Cn1c(=O)n(C2CCC(=O)NC2=O)c2cccc(CN3CC4(CCN(C[C@H]5CC[C@H](n6cc(NC(=O)c7cnn8ccc(N9CCOCC9)nc78)c(C(F)F)n6)CC5)CC4)C3)c21 (stereo partly shown) [I-233]	UniProt Q9NWZ3	< 10 nM
CN1CCN(c2ccn3ncc(C(=O)Nc4cn([C@H]5CC[C@H](CN6CCC(OCCCc7cccc8c7n(C)c(=O)n8C7CCC(=O)NC7=O)CC6)CC5)nc4C(F)F)c3c2)CC1 (stereo partly shown) [I-258]	UniProt Q9NWZ3	10 to 100 nM
COc1cc(C(=O)NCCOCCOCCN(C)C[C@H]2CC[C@H](n3cc(NC(=O)c4coc(-c5ccnc(NCC6CC6)c5)n4)c(C(F)F)n3)CC2)ccc1NC(=O)[C@@H]1N[C@@H](CC(C)(C)C)[C@](C#N)(c2ccc(Cl)cc2F)[C@H]1c1cccc(Cl)c1F [I-145]	UniProt Q9NWZ3	> 1000 nM
CN(CCCN(C)C[C@H]1CC[C@H](n2cc(NC(=O)c3coc(-c4ccnc(NCC5CC5)c4)n3)c(C(F)F)n2)CC1)Cc1cccc2c1n(C)c(=O)n2C1CCC(=O)NC1=O (stereo partly shown) [I-242]	UniProt Q9NWZ3	< 10 nM
NC[C@H]1CC[C@H](n2cc(NC(=O)c3coc(-c4ccnc(NCC5CC5)c4)n3)c(C(F)F)n2)CC1 [I-312]	UniProt Q9NWZ3	> 1000 nM
CN(C[C@H]1CC[C@H](n2cc(NC(=O)c3cnn4ccc(N5CCOCC5)nc34)c(C(F)F)n2)CC1)[C@H]1CC[C@H](Nc2cccc3c2C(=O)N(C2CCC(=O)NC2=O)C3=O)CC1 (stereo partly shown) [I-355]	UniProt Q9NWZ3	10 to 100 nM
CC[C@@H]1[C@H](F)C(=O)N[C@@H]1COc1ncc(C#C[C@H]2CC[C@H](CN3CCC(OCCCc4ccc5c(c4)n(C)c(=O)n5C4CCC(=O)NC4=O)CC3)CC2)c2cc(C(N)=O)c(OC)cc12 (stereo partly shown) [I-187]	UniProt Q9NWZ3	> 1000 nM
CN(C[C@H]1CC[C@H](n2cc(NC(=O)c3coc(-c4ccnc(NCC5CC5)c4)n3)c(C(F)F)n2)CC1)C1CCN(Cc2cccc3c2n(C)c(=O)n3[C@H]2CCC(=O)NC2=O)CC1 [I-308]	UniProt Q9NWZ3	< 10 nM
